Provenance of the data: PubChem BioAssay (NCATS)

Test system: CP247
Assay: qHTS profiling for inhibitors of Plasmodium falciparum proliferation (AID 504749); further: nearly all actives have a fitted effect of over 60% in size
Settings: P. falciparum in erythrocytes, SYBR Green DNA, 72 h; series mostly up to 28.7 µM
Inconclusive results are not listed. The source made the active and inactive calls. The call rests on the fitted dose curve; in most records, active means well fitted inhibition curve with a large enough effect; inconclusive means small, poorly fitted or top-dose-only effect; inactive means flat fitted curve, though single readings scatter.
I would appreciate it if you answered using one of these outcomes: true (1) for active, false (0) for inactive

Hi team, can someone confirm the assay call for CC[C@H]1OC(=O)[C@H](C)[C@@H](O[C@H]2C[C@@](C)(OC)[C@@H](O)[C@H](C)O2)C(C)[C@@H](O[C@@H]2O[C@H](C)C[C@H](N(C)C)[C@@H]2O)[C@](C)(OC)C[C@@H](C)C(=O)[C@H](C)[C@@H](O)[C@]1(C)O (some centres undefined) ?
false (0)

Hi team, can someone confirm the assay call for `CC(=O)Nc1ccc(OC(C)=O)cc1` ?
false (0)

Hi team, can someone confirm the assay call for Cc1cccc(C)c1NC(=O)C1CCCCN1C (centres undefined) ?
false (0)

Hi team, can someone confirm the assay call for `O=C(O)CCC/C=C\C[C@@H]1[C@@H](/C=C/[C@@H](O)COc2cccc(C(F)(F)F)c2)[C@H](O)C[C@@H]1O` ?
false (0)

Hi team, can someone confirm the assay call for `CC(=O)c1ccc2c(c1)N(CCCN1CCN(CCO)CC1)c1ccccc1S2` ?
true (1)

Hi team, can someone confirm the assay call for CCN(CC)CCCC(C)Nc1cc(/C=C/c2ccccc2Cl)nc2cc(Cl)ccc12 (centres undefined) ?
true (1)

Hi team, can someone confirm the assay call for `FC(F)(F)C(F)(F)C(F)(F)C(F)(F)C(F)(F)C(F)(F)F` ?
false (0)

Hi team, can someone confirm the assay call for CC(C)NCC(O)COc1ccccc1-n1cccc1 (centres undefined) ?
false (0)

Hi team, can someone confirm the assay call for `OC/C=C/c1ccccc1` ?
false (0)

* * *

Test system: CP260
Assay: qHTS profiling for inhibitors of Plasmodium falciparum proliferation (AID 504749); further: nearly all actives have a fitted effect of over 60% in size
Settings: P. falciparum in erythrocytes, SYBR Green DNA, 72 h; series mostly up to 28.7 µM
Records with an inconclusive call do not appear. Activity calls are given as the source filed them. The call rests on the fitted dose curve; in most records, active means well fitted inhibition curve with a large enough effect; inconclusive means small, poorly fitted or top-dose-only effect; inactive means flat fitted curve, though single readings scatter.
I would appreciate it if you answered using one of these outcomes: 1.0 (active), 0.0 (inactive)

Hi team, can someone confirm the assay call for `FCOC(C(F)(F)F)C(F)(F)F` ?
0.0

Hi team, can someone confirm the assay call for `O=C1NCCN1c1ncc([N+](=O)[O-])s1` ?
0.0

Hi team, can someone confirm the assay call for `CCOC(=O)c1c[nH]c2cc(OCC(C)C)c(OCC(C)C)cc2c1=O` ?
1.0

Hi team, can someone confirm the assay call for `CCCCC/C=C\C/C=C\C/C=C\CCCCC(=O)O` ?
0.0

Hi team, can someone confirm the assay call for `C(=C\c1ccncc1)/c1ccccc1` ?
0.0

Hi team, can someone confirm the assay call for C=CC(C)(O)CC/C=C(\C)CCC=C(C)C (centres undefined) ?
0.0

Hi team, can someone confirm the assay call for `[O-][N+](=Nc1ccccc1)c1ccccc1` ?
0.0

Hi team, can someone confirm the assay call for `O=C(OCc1ccccc1)c1ccc(O)cc1` ?
0.0

Hi team, can someone confirm the assay call for `CCCOC(=O)c1ccccc1O` ?
0.0

Hi team, can someone confirm the assay call for C=CCN1CCCC1CNC(=O)c1cc(S(N)(=O)=O)cc(OC)c1OC (centres undefined) ?
0.0

Hi team, can someone confirm the assay call for `O=C(CCCCCCCCCCCCC1CCCC1)Nc1ccc(S(=O)(=O)c2ccc(NC(=O)CCCCCCCCCCCCC3CCCC3)cc2)cc1` ?
0.0

Hi team, can someone confirm the assay call for `O=C(O)c1ccc(OCCn2ccnc2)cc1` ?
0.0

Hi team, can someone confirm the assay call for `CCCCO` ?
0.0

Hi team, can someone confirm the assay call for `COC(=O)CCC[N+](C)(C)C` ?
0.0

Hi team, can someone confirm the assay call for `CC(=O)N=c1sc(S(N)(=O)=O)nn1C` ?
0.0

Hi team, can someone confirm the assay call for `C=Cc1ccc(S(=O)(=O)O)cc1` ?
0.0

Hi team, can someone confirm the assay call for CC12CCC(C1)C(C)(C)C2=O (centres undefined) ?
0.0

Hi team, can someone confirm the assay call for `NC(=O)Oc1ccc(Cc2ccccc2)cc1` ?
0.0

Hi team, can someone confirm the assay call for `Cc1ncc(COP(=O)(O)O)c(CN)c1O` ?
0.0

Hi team, can someone confirm the assay call for `O=C1c2ccccc2C(=O)C1c1ccc(F)cc1` ?
0.0

Hi team, can someone confirm the assay call for `c1ccc2ccccc2c1` ?
0.0

Hi team, can someone confirm the assay call for `NC(=O)CC[C@@H]1NC(=O)[C@H](Cc2ccccc2)NC(=O)[C@H](Cc2ccc(O)cc2)NC(=O)[C@@H](N)CSSC[C@@H](C(=O)N2CCC[C@H]2C(=O)N[C@@H](CCCN=C(N)N)C(=O)NCC(N)=O)NC(=O)[C@H](CC(N)=O)NC1=O` ?
1.0

Hi team, can someone confirm the assay call for `Cc1cc2nc3c(=O)[nH]c(=O)nc-3n(C[C@H](O)[C@H](O)[C@H](O)COP(=O)(O)OP(=O)(O)OC[C@H]3O[C@@H](n4cnc5c(N)ncnc54)[C@H](O)[C@@H]3O)c2cc1C` ?
0.0

Hi team, can someone confirm the assay call for `S=C=Nc1ccc(N=C=S)cc1` ?
0.0
